Catalogue of sequences with associated binding signal
# TARGET_SYSTEM: MBP-FoxP1dN (Mus musculus, UniProt P58462 326-579)
# Sequence: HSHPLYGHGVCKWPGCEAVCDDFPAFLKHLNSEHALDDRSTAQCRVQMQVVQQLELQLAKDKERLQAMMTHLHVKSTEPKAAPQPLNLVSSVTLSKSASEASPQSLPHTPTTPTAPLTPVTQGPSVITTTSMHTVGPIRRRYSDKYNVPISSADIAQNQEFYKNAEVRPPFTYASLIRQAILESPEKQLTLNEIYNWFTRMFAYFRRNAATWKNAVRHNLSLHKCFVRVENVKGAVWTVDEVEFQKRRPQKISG
# EXPERIMENT: PD-seq (MBP pull-down with sequencing); 20 mM Tris-HCl pH 7.5, 100 mM NaCl, 1.5 mM MgCl2, 0.4 uM protein, 0.1 uM dsDNA library, 30 min, room temperature, amylose pull-down; high values mean tight binding
# ASSAY_SETUP: protein: recombinant; tags: His6-MBP; chain copies: 2; dsDNA, one strand shown
In all, about 16,000 sequences were measured (“rpm ratio (pull-down/input)”: median about 0.94, highest 2% from about 1.7 on). The sample as a whole holds a higher share of the highest values than the screen did.

Completed entries (count: 6):
# return recorded binding signal for entry GATGATTGTTCTCCCAGCTGATGAATTAGCTCGGTCGAGTAAACAAATTTTCCTAATCTTTCTGTTCAAGCGCCATCTAC
0.829 RPM ratio (pull-down/input)

# return recorded binding signal for entry GATGATTGTTCTCCCAGCTGATGAATTGTAATACTCGAGTAAACAAATTTTCCTAATCTTTCTGTTCAAGCGCCATCTAC
1.04 RPM ratio (pull-down/input)

# return recorded binding signal for entry GATGATTGTTCTCCCAGCTGATGAATTAGTCCTCTCGAGTAAACAAATTTTCCTAATCTTTCTGTTCAAGCGCCATCTAC
0.936 RPM ratio (pull-down/input)

# return recorded binding signal for entry GATGATTGTTCTCCCAGCTGATGAATTACCGCGCTCGAGTAAACAAATTTTCCTAATCTTTCTGTTCAAGCGCCATCTAC
0.948 RPM ratio (pull-down/input)

# return recorded binding signal for entry GATGATTGTTCTCCCAGCTGATGAATTTCTTTGGTCGAGTAAACAAATTTTCCTAATCTTTCTGTTCAAGCGCCATCTAC
0.881 RPM ratio (pull-down/input)

# return recorded binding signal for entry GATGATTGTTCTCCCAGCTGATGAATTTCTATACTCGAGTAAACAAATTTTCCTAATCTTTCTGTTCAAGCGCCATCTAC
0.903 RPM ratio (pull-down/input)

***
# return recorded binding signal for entry GATGATTGTTCTCCCAGCTGATGAATTTGTGTGATCGAGTAAACAAATTTTCCTAATCTTTCTGTTCAAGCGCCATCTAC
1.3 RPM ratio (pull-down/input)

# return recorded binding signal for entry GATGATTGTTCTCCCAGCTGATGAATTCATCTTGTCGAGTAAACAAATTTTCCTAATCTTTCTGTTCAAGCGCCATCTAC
0.898 RPM ratio (pull-down/input)

====

Catalogue of sequences with associated binding signal
# TARGET_SYSTEM: MBP-FoxP1dN (Mus musculus, UniProt P58462 326-579)
# Sequence: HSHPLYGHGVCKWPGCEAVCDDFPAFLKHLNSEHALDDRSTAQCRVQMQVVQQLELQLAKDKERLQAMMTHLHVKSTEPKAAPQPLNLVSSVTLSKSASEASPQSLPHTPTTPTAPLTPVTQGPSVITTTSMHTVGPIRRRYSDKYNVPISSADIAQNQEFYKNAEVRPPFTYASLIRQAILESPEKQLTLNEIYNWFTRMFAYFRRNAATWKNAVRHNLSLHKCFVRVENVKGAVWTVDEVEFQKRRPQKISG
# EXPERIMENT: PD-seq (MBP pull-down with sequencing); 20 mM Tris-HCl pH 7.5, 100 mM NaCl, 1.5 mM MgCl2, 0.4 uM protein, 0.1 uM dsDNA library, 30 min, room temperature, amylose pull-down; high values mean tight binding
# ASSAY_SETUP: protein: recombinant; tags: His6-MBP; chain copies: 2; dsDNA, one strand shown
The full ranking holds about 16,000 sequences; the median of “rpm ratio (pull-down/input)” is about 0.94, and the highest 2% start at about 1.7. This is one part of a sample in which the highest values are shown more often than they occur.

# return recorded binding signal for entry GATGATTGTTCTCCCAGCTGATGAATTGTGTACCTCGAGTAAACAAATTTTCCTAATCTTTCTGTTCAAGCGCCATCTAC
1.6 RPM ratio (pull-down/input)

# return recorded binding signal for entry GATGATTGTTCTCCCAGCTGATGAATTCTGTTATTCGAGTAAACAAATTTTCCTAATCTTTCTGTTCAAGCGCCATCTAC
1.78 RPM ratio (pull-down/input)

# return recorded binding signal for entry GATGATTGTTCTCCCAGCTGATGAATTGCAGTTGTCGAGTAAACAAATTTTCCTAATCTTTCTGTTCAAGCGCCATCTAC
1.34 RPM ratio (pull-down/input)
